The reported numbers originate from ChEMBL document CHEMBL3813681.

experiment description: Half life in human liver S9 fraction
Format: ADME, subcellular
property: half-life (min)
Could you give me the number in min? Just the number is fine.

Problem: Item `CNc1cccc(NCCc2cccc(NCCc3ccccn3)n2)n1` has what recorded half-life?
Solution: 10

---

experiment description: Lipophilicity, logD of the compound
Type: physicochemical
condition label: octanol/water
property: logD
// return a plain number; no unit text

Problem: Item `CNc1cccc(NCCc2cccc(NCCc3ccccn3)n2)n1` has what recorded logD?
Solution: 2.96

---

experiment description: Apparent permeability of the compound from apical to basolateral side
Assay type: physicochemical
condition label: not told
property: Papp A→B (×10⁻⁶ cm/s)
Could you give me the number in ×10⁻⁶ cm/s? Just the number is fine.

Problem: Item `CNc1cccc(NCCc2cccc(NCCc3ccccn3)n2)n1` has what recorded Papp A→B?
Solution: 49.2

---

experiment description: Cmax in Swiss mouse plasma at 2 mg/kg, iv
Type: ADME, organism-based
Design: dose 2 mg/kg, route intravenous
property: Cmax (ng/mL)
Could you give me the number in ng/mL? Just the number is fine.

Problem: Item `CNc1cccc(NCCc2cccc(NCCc3ccccn3)n2)n1` has what recorded Cmax?
Solution: 308

---

experiment description: Half life in Swiss mouse plasma at 2 mg/kg, iv
Assay type: ADME, organism-based
property: half-life (min)
Could you give me the number in min? Just the number is fine.

Problem: Item `CNc1cccc(NCCc2cccc(NCCc3ccccn3)n2)n1` has what recorded half-life?
Solution: 37.8

---

experiment description: Volume of distribution in Swiss mouse plasma at 2 mg/kg, iv
Assay type: ADME, organism-based
property: Vd

Problem: Item `CNc1cccc(NCCc2cccc(NCCc3ccccn3)n2)n1` has what recorded Vd?
Solution: 12 L/kg

---

system tested: Amyloid-beta precursor protein (Homo sapiens)
experiment description: Inhibition of Abeta42 (unknown origin) aggregation assessed as ThT fluorescence at 330 uM measured after 24 hrs by ThT fluorescence assay relative to DMSO control
Set-up: scale not given: the % may be the effect or the level left
Please go through the items and note down their Activity.
Could you give me the number in %? Just the number is fine.

Problem: Item `CNc1cccc(CCNc2cccc(NCCc3ccccn3)n2)n1` has what recorded Activity?
Solution: 12

Problem: What about `CNc1cccc(CCNc2cccc(CCN(c3ccccn3)c3ccccn3)n2)n1` ?
Solution: 16

Problem: What about `CNc1cccc(CCNc2cccc(NC)n2)n1` ?
Solution: 23

Problem: What about `CNc1cccc(NCCc2ccccn2)n1` ?
Solution: 36

Problem: What about `CNc1cccc(CCNc2cccc(CCNc3ccccn3)n2)n1` ?
Solution: 16

---

Please go through the items and note down their Activity.
system tested: Amyloid-beta precursor protein (Homo sapiens, UniProt P05067)
Sequence (P05067 whole entry): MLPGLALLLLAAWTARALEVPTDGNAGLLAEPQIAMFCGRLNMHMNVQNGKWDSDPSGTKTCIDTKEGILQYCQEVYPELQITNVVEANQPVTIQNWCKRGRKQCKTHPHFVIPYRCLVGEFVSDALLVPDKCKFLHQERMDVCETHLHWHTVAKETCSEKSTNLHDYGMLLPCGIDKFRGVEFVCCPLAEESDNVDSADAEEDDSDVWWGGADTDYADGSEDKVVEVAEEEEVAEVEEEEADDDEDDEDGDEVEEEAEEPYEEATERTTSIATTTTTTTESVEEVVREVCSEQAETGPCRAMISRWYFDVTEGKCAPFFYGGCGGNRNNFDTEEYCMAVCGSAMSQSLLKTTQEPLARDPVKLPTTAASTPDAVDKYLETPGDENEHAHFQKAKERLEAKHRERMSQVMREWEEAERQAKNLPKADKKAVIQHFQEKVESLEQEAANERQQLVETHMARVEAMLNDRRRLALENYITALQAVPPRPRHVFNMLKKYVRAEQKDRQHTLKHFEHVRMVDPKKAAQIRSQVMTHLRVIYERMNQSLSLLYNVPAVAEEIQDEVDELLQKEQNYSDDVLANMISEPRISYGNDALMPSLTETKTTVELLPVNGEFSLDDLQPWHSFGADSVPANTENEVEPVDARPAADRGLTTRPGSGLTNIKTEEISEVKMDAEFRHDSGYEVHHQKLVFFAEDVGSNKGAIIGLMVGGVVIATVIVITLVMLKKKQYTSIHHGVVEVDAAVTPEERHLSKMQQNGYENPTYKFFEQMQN
experiment description: Inhibition of Abeta42 (unknown origin) aggregation assessed as ThT fluorescence at 330 uM measured after 24 hrs by ThT fluorescence assay relative to DMSO control
Set-up: scale not given: the % may be the effect or the level left
Could you give me the number in %? Just the number is fine.

Problem: Item `CNc1cccc(CCNc2cccc(CNc3ccccn3)n2)n1` has what recorded Activity?
Solution: 53

Problem: What about `CNc1cccc(CCNc2cccc(CCCNc3ccccn3)n2)n1` ?
Solution: 23

Problem: What about `CNc1cccc(NCCCc2cccc(NCCCc3ccccn3)n2)n1` ?
Solution: 12

Problem: What about `CNc1cccc(CNc2cccc(CCN(c3ccccn3)c3ccccn3)n2)n1` ?
Solution: 23

Problem: What about `CNc1cccc(NCCc2cccc(NCc3ccccn3)n2)n1` ?
Solution: 14

Problem: What about `CNc1cccc(CCCNc2cccc(CCCNc3ccccn3)n2)n1` ?
Solution: 23

Problem: What about `CNc1cccc(NCCc2cccc(NCCc3ccccn3)n2)n1` ?
Solution: 12
